- protocol_details: BIC plasma pharmacokinetics, Phase 1 open-label single-dose DDI study GS-US-380-3909 (B/F/TAF 50/200/25 mg with antacid or mineral supplements)
- Type: in vivo, human
- assay_setup: both sexes, human, plasma, oral, Cohort 1 fasted; BIC alone (N = 14); read-out: C24, reference GLSM

>  <compound>
O=C(NCc1c(F)cc(F)cc1F)c1cn2c(c(O)c1=O)C(=O)N1[C@H]3CC[C@H](C3)O[C@@H]1C2 [BIC, bictegravir]

>  <concentration at 24 h>
1740 ng/mL

$$$$

====

- protocol_details: BIC plasma pharmacokinetics, Phase 1 open-label single-dose DDI study GS-US-380-3909 (B/F/TAF 50/200/25 mg with antacid or mineral supplements)
- Format: in vivo, human
- assay_setup: both sexes, human, plasma, oral, BIC plasma AUClast, mean (%CV), Cohort 2 fasted; B/F/TAF 2 hours after aluminum/magnesium-containing antacid; N = 13

>  <compound>
O=C(NCc1c(F)cc(F)cc1F)c1cn2c(c(O)c1=O)C(=O)N1[C@H]3CC[C@H](C3)O[C@@H]1C2 [BIC, bictegravir]

>  <unit_text>
ng·h/mL

>  <AUC(0-t)>
63400

$$$$
